Record form. Attribute: MIC. Fill in for each entry.
Tested on: Mycobacterium avium SN 304
Test: Minimum inhibiting concentration, M. avium SN 304
Type: cell-based
Conditions: SN304, M. avium SN 304, read-out: Minimum inhibiting concentration
A complete answer gives the number and then names the unit.

Guide cases for MIC, answers given:
[H]/N=C(/N)N[C@H]1[C@H](O)[C@@H](O)[C@H](O[C@@H]2O[C@@H](C)[C@](O)(C=O)[C@H]2O[C@@H]2O[C@@H](CO)[C@H](O)[C@@H](O)[C@@H]2NC)[C@@H](N/C(N)=N\[H])[C@@H]1O
55 µM
CO[C@H]1/C=C/O[C@@]2(C)Oc3c(C)c(O)c4c(O)c(c(/C=N/N5CCN(C)CC5)c(O)c4c3C2=O)NC(=O)/C(C)=C\C=C\[C@H](C)[C@H](O)[C@@H](C)[C@@H](O)[C@@H](C)[C@H](OC(C)=O)[C@@H]1C
39 µM
C(=NNc1ccccn1)c1ccccn1 [PH 22, pyridine-2-aldehyde-2'-pyridylhydrazone]
30 µM

Please turn your attention to the following entry.
Recorded result, C(=NNc1ccc2ccccc2n1)c1ccccn1 [PQ 22, pyridine-2-aldehyde-2'-quinolylhydrazone] , MIC: 24 µM
